- test: non-specific cell cytotoxicity, dose response, cytotoxicity control for PAX8 inhibitor project, plate reader, dry powder samples (AID 743021)
- experimental.parameters: cell line, non-specific cytotoxicity counter-screen; series mostly up to 35 µM
Potency and affinity values are given separately. Inconclusive results are not listed. Active and inactive are the calls of the source. No rule for the calls is given here.
reported.endpoint: activity change, negative = cytotoxicity

Worked examples, 4 compounds total:
compound: CCCCn1c(=O)[nH]c(=O)c2c1nc(Cn1ncc(Cl)c(Cl)c1=O)n2CCC
activity change, negative = cytotoxicity: inactive
//
compound: C=CC(=O)N=c1sc2ccccc2n1-c1ccccc1
activity change, negative = cytotoxicity: inactive
//
compound: COc1ccc(S(=O)(=O)N2CCCCN3[C@H](CO)[C@@H](c4ccc(C#CC(C)C)cc4)[C@H]3C2)cc1
activity change, negative = cytotoxicity: inactive
//
compound: O=S(=O)(NCC1CCCO1)c1cnc(Cl)c(Br)c1 (stereo not given)
activity change, negative = cytotoxicity: inactive

Alright, here's another compound for you.
Value lookup for activity change, negative = cytotoxicity; key = `COc1cc(OC)c(NC2=CC(=O)C(=O)c3ccccc32)cc1Cl`
inactive
